Assignment: determine reported pest or weed control at 0.2 % for the given compounds.
- Tested on: bed bugs
- PROCEDURE_DETAILS: Choice test with unconcealed bed bugs on filter paper discs, test compound in acetone vs. acetone only (percent repellency)
- Assay type: in vivo
- CONDITION_SUMMARY: chemical at 0.2% in acetone on filter paper; 6 hr post-treatment; read-out: percent repellency at 6 hr

Example compounds with recorded pest or weed control at 0.2 %:
CCCCCC1C(=O)CCC1CC(=O)OC (stereo not shown) [Methyl dihydrojasmonate] :: 94%
CCC(C)=CCCC(C)=CCC1CCCC1=O (stereo not shown) :: 100%
CC/C=C\CC1C(=O)CCC1CC(=O)OC (stereo not shown) [Methyl jasmonate] :: 90%

Continue with the next compound.
Entry CCCCOC(=O)CCC(C)=O [Butyl levulinate, reference compound] , system bed bugs: what pest or weed control at 0.2 % was measured?
62%

---

- System: bed bugs
- PROCEDURE_DETAILS: Choice test with unconcealed bed bugs on filter paper discs, test compound in acetone vs. acetone only (percent repellency)
- Type: in vivo
- CONDITION_SUMMARY: chemical at 0.2% in acetone on filter paper; 1 hr post-treatment; read-out: percent repellency at 1 hr
ASSAY_READOUT: pest or weed control at 0.2 %
Put your answer as a value accompanied by its unit after it.

Record excerpt, results attached:
CC/C=C\CC1C(=O)CCC1CC(=O)OC (stereo not shown) [Methyl jasmonate] :: 90%
CCC(C)=CCCC(C)=CCC1CCCC1=O (stereo not shown) :: 100%
CCCCCC1C(=O)CCC1CC(=O)OC (stereo not shown) [Methyl dihydrojasmonate] :: 96%

Please tell me: pest or weed control at 0.2 % of CCCCOC(=O)CCC(C)=O [Butyl levulinate, reference compound] , system bed bugs?
68%

---

- System: bed bugs
- PROCEDURE_DETAILS: Choice test with unconcealed bed bugs on filter paper discs, test compound in acetone vs. acetone only (percent repellency)
- Format: in vivo
- CONDITION_SUMMARY: chemical at 0.2%; 2 hour post-treatment (Table 2)
ASSAY_READOUT: percent repellency at 2 hour (%)
Give bare numbers, in %.

CCCCCC1C(=O)CCC1CC(=O)OCC (stereo not shown) [Ethyl dihydrojasmonate] :: 90

Please supply percent repellency at 2 hour for each of the following items, keeping them in order.
1. CC(C)CCCC(C)CCC1CCCC1=O (stereo not shown) [Tetrahydroapritone]
2. CCCCCC1C(=O)CCC1CC(=O)OCCC (stereo not shown) [Propyl dihydrojasmonate]
3. CCCCCC1C(=O)CCC1CC(=O)OC (stereo not shown) [Methyl dihydrojasmonate]
4. CCC(C)CCCC(C)CCC1CCCC1=O (stereo not shown) [Tetrahydro methyl apritone, 2-(3,7-dimethynonyl)cyclopentanone]
5. CCC(C)=CCCC(C)=CCC1CCCC1=O (stereo not shown) [Methyl Apritone]
6. CCCCCC1CC(=O)C=C(C)C1C(=O)OCC (stereo not shown)

[82, 78, 98, 88, 90, 62]

---

- Test system: bed bugs
- PROCEDURE_DETAILS: Choice test with unconcealed bed bugs on filter paper discs, test compound in acetone vs. acetone only (percent repellency)
- Assay type: in vivo
- CONDITION_SUMMARY: chemical at 0.5% in acetone on filter paper; 6 hr post-treatment; read-out: percent repellency at 6 hr
I'd appreciate it if you could supply pest or weed control at 0.5 % values for the items below.
Numbers only, in %.

# batch size: 7; output pest or weed control at 0.5 % per entry
1. CC(C)=CCCC(C)=CCC1CCCC1=O (centres unmarked) [2-Geranylcyclopentanone (Apritone)]
2. CC1=CCC(C(C)CC2CCCC2=O)CC1 (centres unmarked) [Nectaryl ™]
3. CC(=O)C(C)=CC1C(C)=CCCC1(C)C (stereo not drawn) [Alpha Isomethylionone]
4. CCCCCCCCC(=O)C(C)=O [2,3-Undecanedione, reference compound]
5. CCCCCCC=CC(C)=O [3-Decen-2-one]
6. CCCCCC=CCC1CCCC1=O (centres unmarked) [2-Octenylcyclopentanone, 2-(2-octen-1-yl)cyclopentanone]
7. CCCCCCCCCCC(C)=O [Methyl decyl ketone, 2-dodecanone]

100
100
100
60
78
100
100

Fill in pest or weed control at 0.5 % for each of the 6 compounds listed.
1. O=C1CCCC1C1CCCC1 (centres unmarked) [2-Cyclopentylcyclopentanone, 2-cyclopentylcyclopentanone]
2. C=C(C)C1CCC2=CC(=O)CC(C)C2(C)C1 (centres unmarked) [Nootkatone]
3. CC1(C)C2CCC3(C2)C1C(=O)CCC3(C)C (centres unmarked) [Isolongifolanone]
4. CCC(=O)/C(C)=C/C1C(C)CC=CC1(C)C (centres unmarked) [Dimethylionone]
5. CCCCCCCCCCCC(C)=O [Methyl undecyl ketone, 2-tridecanone]
6. CC1=CCCC(C)(C)C1/C=C/C(=O)CC(C)C (centres unmarked) [Isobutylionone]

1. 76
2. 100
3. 98
4. 96
5. 100
6. 94

Which measured pest or weed control at 0.5 % value corresponds to CC(=O)CCC=C(C)CCC=C(C)C [Geranylacetone, 6,10-dimethyl-5,9-undecadien-2-one] ?
100
